test: Solubility test by HPLC in PBS pH 7.4; type: physicochemical; details: PBS (phosphate buffer saline), aqueous buffer, kinetic from dmso stock; PBS pH 7.4, HPLC against standard; compounds of formula I
measuredMetric: solubility kinetic (µg/mL)
Answers are plain numbers, in µg/mL.

Take a look at these entries with their results.
COc1ccc2c(Cc3c(Cl)cncc3Cl)nnc(-c3cc(NS(C)(=O)=O)cc(C(=O)O)c3)c2c1	271
COc1ccc2c(Cc3c(Cl)cncc3Cl)nnc(-c3nc(C(=O)O)co3)c2c1	202

Dear reader, for each entry below, please note its solubility kinetic.
1. COc1ccc2c(Cc3c(Cl)cncc3Cl)nnc(-c3cccc(C(=O)O)c3)c2c1
2. COc1ccc2c(Cc3c(Cl)cncc3Cl)nnc(-c3cc(C(=O)O)cc([N+](=O)[O-])c3)c2c1
3. O=C(O)c1cccc(-c2nnc(Cc3c(Cl)cncc3Cl)c3ccc(OC(F)F)cc23)c1
4. COc1ccc2c(Cc3c(Cl)cncc3Cl)nnc(-c3cc(C(=O)O)ccc3OC)c2c1
5. COc1ccc2c(Cc3c(Cl)cncc3Cl)nnc(-c3sccc3C(=O)O)c2c1

1. 216
2. 298
3. 470
4. 230
5. 253

Dear reader, for each entry below, please note its solubility kinetic.
1. COc1cc(C(=O)O)cc(-c2nnc(Cc3c(Cl)cncc3Cl)c3ccc(OC)cc23)c1
2. COc1ccc2c(Cc3c(Cl)cncc3Cl)nnc(-c3ccc(OC)c(C(=O)O)c3)c2c1
3. COc1ccc2c(Cc3c(Cl)cncc3Cl)nnc(-c3ccc(C(=O)O)cc3)c2c1

235
226
218

* * *

target: PDE 3 (Homo sapiens); test: PDE 3 enzyme inhibition (SPA); assay type: biochemical, healthy volunteers; details: PDE 3 from platelet rich plasma; 3H-cAMP; read-out: PDE 3-5 IC 50 (nM): PDE 3
Sequence (Q14432 674-1093 limits assumed): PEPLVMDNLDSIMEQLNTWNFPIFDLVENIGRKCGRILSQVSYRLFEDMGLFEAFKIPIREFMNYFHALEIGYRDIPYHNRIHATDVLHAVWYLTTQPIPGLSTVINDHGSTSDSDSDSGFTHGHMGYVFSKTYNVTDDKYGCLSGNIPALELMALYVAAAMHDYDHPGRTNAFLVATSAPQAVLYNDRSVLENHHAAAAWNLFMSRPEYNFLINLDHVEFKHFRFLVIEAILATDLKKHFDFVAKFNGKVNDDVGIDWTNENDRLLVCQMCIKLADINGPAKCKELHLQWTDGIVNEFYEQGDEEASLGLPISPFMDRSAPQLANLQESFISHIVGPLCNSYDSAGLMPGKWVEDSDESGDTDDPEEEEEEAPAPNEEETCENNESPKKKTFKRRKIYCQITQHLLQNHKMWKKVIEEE
Exercise: state measured IC50 for each of the compounds provided.

O=C(O)c1cccc(-c2nnc(Cc3c(Cl)cncc3Cl)c3ccc(OC(F)F)cc23)c1	> 10000 nM

Dear reader, for each entry below, please note its IC50.
1. COc1ccc2c(Cc3c(Cl)cncc3Cl)nnc(-c3cccc(C(=O)O)c3)c2c1
2. COc1ccc2c(Cc3c(Cl)cncc3Cl)nnc(-c3sccc3C(=O)O)c2c1

1: > 10000 nM; 2: > 10000 nM

* * *

target: PDE 2 (Rattus norvegicus, UniProt Q01062); construct: Fractions containing PDE 2 enzyme activity were pooled; endogenous in cells; assay: PDE 2 enzyme inhibition (SPA); conditions: PDE 2 from murine PC12 cells; read-out: PDE 2 IC 50
Sequence (Q01062 whole entry): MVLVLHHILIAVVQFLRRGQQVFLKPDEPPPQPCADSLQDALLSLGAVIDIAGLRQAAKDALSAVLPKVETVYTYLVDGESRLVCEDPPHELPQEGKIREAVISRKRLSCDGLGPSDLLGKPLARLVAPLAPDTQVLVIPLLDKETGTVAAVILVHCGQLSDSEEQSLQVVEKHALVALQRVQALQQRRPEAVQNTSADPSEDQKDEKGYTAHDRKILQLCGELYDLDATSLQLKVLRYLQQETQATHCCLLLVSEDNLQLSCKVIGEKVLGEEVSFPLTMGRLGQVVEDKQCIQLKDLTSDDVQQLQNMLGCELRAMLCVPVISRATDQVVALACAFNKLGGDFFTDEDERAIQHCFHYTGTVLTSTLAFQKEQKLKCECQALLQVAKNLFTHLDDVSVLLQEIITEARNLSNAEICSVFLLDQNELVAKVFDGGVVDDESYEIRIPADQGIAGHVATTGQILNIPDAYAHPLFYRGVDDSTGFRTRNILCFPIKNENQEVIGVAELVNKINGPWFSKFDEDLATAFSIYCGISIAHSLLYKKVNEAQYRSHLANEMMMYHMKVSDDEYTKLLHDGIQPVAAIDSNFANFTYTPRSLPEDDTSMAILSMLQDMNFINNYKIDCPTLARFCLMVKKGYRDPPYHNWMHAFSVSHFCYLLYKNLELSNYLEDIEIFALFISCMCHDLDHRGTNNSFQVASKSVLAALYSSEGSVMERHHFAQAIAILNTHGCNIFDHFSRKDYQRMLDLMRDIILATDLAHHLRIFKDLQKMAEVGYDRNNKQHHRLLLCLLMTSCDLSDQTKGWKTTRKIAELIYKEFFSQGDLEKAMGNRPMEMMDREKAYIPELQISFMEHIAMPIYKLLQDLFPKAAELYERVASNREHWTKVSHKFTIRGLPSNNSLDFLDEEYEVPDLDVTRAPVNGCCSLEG
Exercise: state measured IC50 for each of the compounds provided.

Take a look at these entries with their results.
O=C(O)c1cccc(-c2nnc(Cc3c(Cl)cncc3Cl)c3ccc(OC(F)F)cc23)c1	> 10 µM
COc1ccc2c(Cc3c(Cl)cncc3Cl)nnc(-c3sccc3C(=O)O)c2c1	> 10 µM

Continue with the compound presented below.
I'd like to know its IC50. The compound in question is COc1ccc2c(Cc3c(Cl)cncc3Cl)nnc(-c3cccc(C(=O)O)c3)c2c1
> 10 µM

* * *

test: Solubility test by HPLC in PBS pH 7.4; assay type: physicochemical; conditions: PBS pH 7.4, HPLC against standard; compounds of formula I
measuredMetric: Sol. (µM)
Answers are plain numbers, in µM.

Dear reader, for each entry below, please note its Sol..
1. COc1ccc2c(Cc3c(Cl)cncc3Cl)nnc(-c3cc(C(=O)O)cc([N+](=O)[O-])c3)c2c1
2. O=C(O)c1cccc(-c2nnc(Cc3c(Cl)cncc3Cl)c3ccc(OC(F)F)cc23)c1

[614.43, 987.39]

Dear reader, for each entry below, please note its Sol..
1. COc1ccc2c(Cc3c(Cl)cncc3Cl)nnc(-c3cc(C(=O)O)ccc3OC)c2c1
2. COc1ccc2c(Cc3c(Cl)cncc3Cl)nnc(-c3ccc(C(=O)O)cc3)c2c1

489.36
495.45

Dear reader, for each entry below, please note its Sol..
1. COc1ccc2c(Cc3c(Cl)cncc3Cl)nnc(-c3sccc3C(=O)O)c2c1
2. COc1ccc2c(Cc3c(Cl)cncc3Cl)nnc(-c3cc(NS(C)(=O)=O)cc(C(=O)O)c3)c2c1
3. COc1cc(C(=O)O)cc(-c2nnc(Cc3c(Cl)cncc3Cl)c3ccc(OC)cc23)c1
4. COc1ccc2c(Cc3c(Cl)cncc3Cl)nnc(-c3nc(C(=O)O)co3)c2c1
5. COc1ccc2c(Cc3c(Cl)cncc3Cl)nnc(-c3ccc(OC)c(C(=O)O)c3)c2c1

1: 567.26; 2: 508.44; 3: 500.00; 4: 468.68; 5: 480.85

I'd like to know its Sol.. The compound in question is COc1ccc2c(Cc3c(Cl)cncc3Cl)nnc(-c3cccc(C(=O)O)c3)c2c1
482.14
